These data points were gathered from PubChem BioAssay.

# Procedure Summary: MRP1 drug-resistance reversers in H69AR cells – cell-based, doxorubicin co-treatment, pilot screen (AID 601)
# Experimental Parameters: H69AR cells + 2 uM doxorubicin, CellTiter-Glo, 72 h; at 10 µM; hits give high values
Activity calls are given as the source filed them.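 Rule for the calls: active = viability loss from added drug above about 55%, and viability with drug at most 40%, in both replicates (limit read from the data, passing the limit was not always enough); inconclusive = both conditions met in only one replicate; inactive = neither replicate meets both conditions.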
Measured Attribute: differential viability (reversal)

State the recorded differential viability (reversal) for this entry: CN(C)CCCN1C(=O)CSC1c1ccccc1 (stereo not drawn)
4.35% (inactive)

How about `CCOc1ccc(-c2cc(CCCC(=O)N3CCN(c4ccc(OC)cc4)CC3)no2)cc1` ?
-2.52% (inactive)

How about `COc1ccc(NC(=O)CSc2nnc(-c3ccccc3)n2N)cc1` ?
17.2% (inactive)

How about CC(=O)c1ccc(OCC(O)CN2CCN(Cc3ccc4c(c3)OCO4)CC2)cc1 (stereo not drawn) ?
-2.19% (inactive)

How about `COc1cccc(-c2nnc(NC(C)=O)o2)c1` ?
7.19% (inactive)

How about `O=c1cc(-c2ccco2)oc2ccc(Cl)cc12` ?
12.5% (inactive)

How about `Cc1ccccc1CSc1nnc(C)c(=O)[nH]1` ?
4.72% (inactive)

How about `CS(=O)(=O)NCCSCc1c(F)cccc1Cl` ?
12.5% (inactive)

How about `COC(=O)CCC(=O)Nc1ccc(OC)cc1` ?
-13.2% (inactive)

How about Cc1cccc(C2CC(c3ccc(Cl)cc3)Nc3nc(N)nn32)c1 (stereo not drawn) ?
-10.4% (inactive)

How about `CCN1CCN(C(=O)c2cn(CC)c3ccc(S(=O)(=O)N(C)C)cc3c2=O)CC1` ?
11% (inactive)

How about COc1ccc(S(=O)(=O)NCC(c2cccnc2)N2CCN(C)CC2)cc1C (stereo not drawn) ?
-2.52% (inactive)

How about Cc1nc2sc(C(c3cccs3)N3CCC(C(N)=O)CC3)c(O)n2n1 (stereo not drawn) ?
-4.42% (inactive)

How about `C=CCNC(=O)CSc1nc2sc(C)c(C)c2c(=O)[nH]1` ?
-7.53% (inactive)

How about `COc1ccc(N(CC(=O)Nc2cc(C)ccc2C)S(=O)(=O)c2c(C)nn(C)c2C)cc1` ?
-0.425% (inactive)

How about `O=C(CCn1c(=O)oc2ccccc21)NCCN1CCOCC1` ?
-3.67% (inactive)

How about `Cc1ccccc1Cn1cc(/C=N/n2cnnc2)c2ccccc21` ?
13.3% (inactive)

How about CC(=O)NC(CCS(C)(=O)=O)C(=O)Nc1cccc2ccccc12 (stereo not drawn) ?
-10.2% (inactive)

How about `CCOC(=O)C1CCN(C(=O)CN(c2ccc(Cl)c(C(F)(F)F)c2)S(C)(=O)=O)CC1` ?
-9.81% (inactive)

How about `O=C(NCCC1=CCCCC1)C1CCN(S(=O)(=O)c2cccc3cccnc23)CC1` ?
-1.27% (inactive)

How about `COc1ccccc1S(=O)(=O)Cc1ccc(C(=O)NCCN2CCCCCC2)o1` ?
11.8% (inactive)

How about `CCCNC(=O)C1CCN(S(=O)(=O)c2ccc3nc4c(c(C(=O)O)c3c2)CCCCC4)CC1` ?
2.09% (inactive)

How about Cc1ccc(CNC(=O)C2CCCN(S(=O)(=O)c3cnc[nH]3)C2)cc1 (stereo not drawn) ?
13.9% (inactive)
